assay: Clearance in Sprague-Dawley rat at 3 mg/kg, iv and 10 mg/kg, po; format: ADME, organism-based; conditions: in vivo
reported_metric: clearance (mL/min/kg)
Value expressed in mL/min/kg; do not type the unit.

INSERT INTO measurements (structure_string, result) VALUES
  ('O=C1CCCN1C1CCN(CCOc2ccc(Oc3nc4ccccc4s3)cc2)CC1', 8.33);

Moving on to another compound below.
Reported clearance of "O=C1CCCN1C1CCN(Cc2coc3cc(Oc4nc5ncccc5s4)ccc23)CC1" : 11.7
